- test_system: T1, human LIGHT (TNFSF14), full length, membrane-bound (214E allele) (human, UniProt O43557 1-240)
- T1 construct: also called membrane LIGHT; human membrane LIGHT
- T1 sequence (O43557 whole entry K214E): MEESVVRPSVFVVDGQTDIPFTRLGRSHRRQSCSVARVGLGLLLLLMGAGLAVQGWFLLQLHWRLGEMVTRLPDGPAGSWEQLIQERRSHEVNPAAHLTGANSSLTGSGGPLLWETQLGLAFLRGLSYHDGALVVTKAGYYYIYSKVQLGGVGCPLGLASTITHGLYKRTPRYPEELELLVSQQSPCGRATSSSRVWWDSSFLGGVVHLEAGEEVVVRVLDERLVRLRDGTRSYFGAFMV
- experiment_notes: flow cytometry, EL4-LIGHT cells
measurement_label: EC50 (nM)
Answers are plain numbers, in nM.

Reference set, count: 3
# binder, test_value
data = [
    ("3B04_var3 (antibody, human IgG4, V domains shown, human IgG4 (S241P, L248E, Kabat); also called 3B04 VL1VH3 (var3)) VH: QVQLVQSGAEVKKPGASVKVSCKASGYTFTDYEMHWVRQAPGQGLEWMGEIDPETGDTAYAQKFQGRVTLTADKSTSTAYMEFSSLRSEDTAVYYCSRETDYFFDYWGQGTLVTVSS VL: DIQMTQSPSSLSASVGDRVTITCGASENIYGALNWYQRKQGKAPQLLIYGATNLADGVSSRFSGSGSGRDYTLTISSLQPEDFATYYCQNVLTTPWTFGQGTKLEIKR", 0.32),
    ("3B04_var5 (antibody, human IgG4, V domains shown, human IgG4 (S241P, L248E, Kabat); also called 3B04 VL2VH1 (var5)) VH: QVQLVQSGAEVKKPGASVKVSCKASGYTFTDYEMHWVRQAPGQGLEWIGEIDPETGDTAYSQKFKGRATLTADKSTSTAYMEFSSLRSEDTAVYYCSRETDYFFDYWGQGTLVTVSS VL: DIQMTQSPSSLSASVGDRVTITCGASENIYGALNWYQRKQGKAPKLLIYGATNLADGVPSRFSGSGSGRDYTLTISSLQPEDFATYYCQNVLTTPWTFGQGTKLEIKR", 0.27),
    ("3B04_var10 (antibody, human IgG4, V domains shown, human IgG4 (S241P, L248E, Kabat); also called 3B04 VL3VH2 (var10)) VH: QVQLVQSGAEVKKPGASVKVSCKASGYTFTDYEMHWVRQAPGQGLEWIGEIDPETGDTAYSQKFQGRVTLTADKSTSTAYMEFSSLRSEDTAVYYCSRETDYFFDYWGQGTLVTVSS VL: DIQMTQSPSSLSASVGDRVTITCGASENIYGALNWYQQKPGKAPKLLIYGATNLADGVPSRFSGSGSGRDYTLTISSLQPEDFATYYCQNVLTTPWTFGQGTKLEIKR", 0.49),
]

Fill in EC50 for each of the 2 binders listed.
1. 3D12_var10 (antibody, human IgG4, V domains shown, human IgG4 (S241P, L248E, Kabat); also called 3D12 VL3VH2 (var10)) VH: QVQLVQSGAEVKKPGASVKVSCKASDYTFTDSEIHWVRQAPGQGLEWIGEIDPETGGTAYNQKFQGRVTLTADKSTSTAYMELSSLRSEDTAVYYCSRETDYFFDYWGQGTLVTVSS VL: DIQMTQSPSSLSASVGDRVTITCGASENIYGALNWYQQKPGKAPKLLIYGATNLADGVPSRFSGSGSGRDYTLTISSLQPEDVATYYCQNVLSTPWTFGQGTKLEIKR
2. 3B04_var7 (antibody, human IgG4, V domains shown, human IgG4 (S241P, L248E, Kabat); also called 3B04 VL2VH3 (var7)) VH: QVQLVQSGAEVKKPGASVKVSCKASGYTFTDYEMHWVRQAPGQGLEWMGEIDPETGDTAYAQKFQGRVTLTADKSTSTAYMEFSSLRSEDTAVYYCSRETDYFFDYWGQGTLVTVSS VL: DIQMTQSPSSLSASVGDRVTITCGASENIYGALNWYQRKQGKAPKLLIYGATNLADGVPSRFSGSGSGRDYTLTISSLQPEDFATYYCQNVLTTPWTFGQGTKLEIKR

0.39
0.23

Origin of measurements: patent US20230035798A1
